- target entity: GDP loaded biotinylated KRas^G12C protein (Homo sapiens, UniProt P01116, G12C)
- Construct: biotin (biotinylated); made in house
- Sequence (P01116 1-188 isoform P01116-2 G12C): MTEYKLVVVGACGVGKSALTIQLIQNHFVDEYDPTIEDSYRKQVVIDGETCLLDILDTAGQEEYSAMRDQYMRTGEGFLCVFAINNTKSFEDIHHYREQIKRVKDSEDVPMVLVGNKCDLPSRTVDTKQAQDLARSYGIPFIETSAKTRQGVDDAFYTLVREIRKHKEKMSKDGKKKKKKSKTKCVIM
- protocol description: KRasG12C mass spectrometry adducting assay
- Assay type: binding
- test conditions: test compound final concentration 10 μM, 4 μM KRasG12C, react for 4 hours
Reported KRasG12C M.S. Binding Mean adduct % values are given for each entry in this list.
The response must be a number in % with no trailing unit.

Worked cases, KRasG12C M.S. Binding Mean adduct % given:
{"compound": "C=CC(=O)N1CCN2c3ncnc4cc(-c5cccc(F)c5OC)c(Cl)c(c34)OC[C@@H]2C1", "units of measure": "%", "KRasG12C M.S. Binding Mean adduct %": 71}
{"compound": "C=CC(=O)N1CCN2c3ncnc4cc(-c5ccc6oc(N)nc6c5)c(Cl)c(c34)OC[C@@H]2C1", "units of measure": "%", "KRasG12C M.S. Binding Mean adduct %": 20}
{"compound": "C=CC(=O)N1CCN2c3ncnc4cc(-c5c(C)ccc6[nH]ncc56)cc(c34)OC[C@H]2C1", "units of measure": "%", "KRasG12C M.S. Binding Mean adduct %": 68}
{"compound": "C=CC(=O)N1CCN2c3ncnc4cc(-c5cccc6c5oc(=O)n6C)c(Cl)c(c34)OC[C@@H]2C1", "units of measure": "%", "KRasG12C M.S. Binding Mean adduct %": 34}
{"compound": "C=CC(=O)N1CCN2c3nc(N4CCOCC4)nc4cc(-c5c(C)ccc6[nH]ncc56)c(Cl)c(c34)OC[C@@H]2C1 [Example 70]", "units of measure": "%", "KRasG12C M.S. Binding Mean adduct %": 67}
{"compound": "C=CC(=O)N1CCN2c3ncnc4cc(-c5c(C)ccc6[nH]ncc56)c(Cl)c(c34)OC[C@@H]2C1 [Example 1]", "units of measure": "%", "KRasG12C M.S. Binding Mean adduct %": 95}

Query (compound): C=CC(=O)N1CCN2c3ncnc4cc(-c5c(C)ccc6[nH]ncc56)c(Cl)c(c34)OC[C@@H]2C1 (single isomer, unassigned) [Example 3] ; field requested: KRasG12C M.S. Binding Mean adduct %
96

* * *

- target entity: GDP loaded biotinylated KRas^G12C protein (Homo sapiens, UniProt P01116, G12C)
- Construct: biotin (biotinylated); made in house
- protocol description: KRasG12C mass spectrometry adducting assay
- Type: binding
- test conditions: test compound final concentration 10 μM, 4 μM KRasG12C, react for 4 hours
I would appreciate it if you labelled entries fulfilled when KRasG12C M.S. Binding Mean adduct % is 80% or higher, otherwise not fulfilled.

{"compound": "C=CC(=O)N1CCN2c3ncnc4cc(-c5c(C)ccc6[nH]ncc56)c(Cl)c(c34)OCC[C@@H]2C1 (single isomer, unassigned) [Example 81]", "qualitative label": "fulfilled"}
{"compound": "C=CC(=O)N1CCN2c3ncnc4cc(-c5cccc(S(N)(=O)=O)c5)c(Cl)c(c34)OC[C@@H]2C1 [Example 31]", "qualitative label": "not fulfilled"}
{"compound": "C=CC(=O)N1CCN2c3nc(N4CCOCC4)nc4cc(-c5c(C)ccc6[nH]ncc56)c(Cl)c(c34)OC[C@@H]2C1 (single isomer, unassigned) [Example 71]", "qualitative label": "fulfilled"}
{"compound": "C=CC(=O)N1CCN2c3ncnc4cc(-c5c(O)cccc5F)c(Cl)c(c34)OC[C@@H]2C1 (single isomer, unassigned) [Example 11]", "qualitative label": "fulfilled"}
{"compound": "C=CC(=O)N1CCN2c3ncnc4cc(-c5cccc6ocnc56)c(Cl)c(c34)OC[C@@H]2C1 [Example 57]", "qualitative label": "not fulfilled"}
{"compound": "C=CC(=O)N1CCN2c3nc(N4CC(N(C)C)C4)nc4cc(-c5c(C)ccc6[nH]ncc56)c(Cl)c(c34)OC[C@@H]2C1 (single isomer, unassigned) [Example 76]", "qualitative label": "not fulfilled"}
{"compound": "C=CC(=O)N1CCN2c3ncnc4cc(-c5ccccc5O)c(Cl)c(c34)OC[C@@H]2C1 [Example 63]", "qualitative label": "fulfilled"}
{"compound": "C=CC(=O)N1CCN2c3ncnc4cc(-c5cccc(CC#N)c5)c(Cl)c(c34)OC[C@@H]2C1 [Example 59]", "qualitative label": "not fulfilled"}

Would you say C=CC(=O)N1CCN2c3ncnc4cc(-c5ccc(O)cc5)c(Cl)c(c34)OC[C@@H]2C1 [Example 52] shows KRasG12C M.S. Binding Mean adduct % at minimum 80%?
not fulfilled

Would you say C=CC(=O)N1CCN2c3ncnc4cc(-c5ccccc5CC(N)=O)c(Cl)c(c34)OC[C@@H]2C1 [Example 49] shows KRasG12C M.S. Binding Mean adduct % at minimum 80%?
not fulfilled

Would you say C=CC(=O)N1CCN2c3ncnc4cc(-c5ccc(F)cc5F)c(Cl)c(c34)OC[C@@H]2C1 [Example 66] shows KRasG12C M.S. Binding Mean adduct % at minimum 80%?
fulfilled

Would you say C=CC(=O)N1CCN2c3ncnc4cc(-c5ccccc5C)c(Cl)c(c34)OC[C@@H]2C1 [Example 41] shows KRasG12C M.S. Binding Mean adduct % at minimum 80%?
fulfilled

* * *

- target entity: GDP loaded biotinylated KRas^G12C protein (Homo sapiens, UniProt P01116, G12C)
- Construct: biotin (biotinylated); made in house
- protocol description: KRasG12C mass spectrometry adducting assay
- Format: binding
- test conditions: test compound final concentration 10 μM, 4 μM KRasG12C, react for 4 hours
I would appreciate it if you labelled entries 1.0 when KRasG12C M.S. Binding Mean adduct % is 50% or higher, otherwise 0.0.

Below, 2 compounds whose answers are already recorded.
{"compound": "C=CC(=O)N1CCN2c3ncnc4cc(-c5cc(Cl)ccc5OC)c(Cl)c(c34)OC[C@@H]2C1 [Example 48]", "qualitative label": 1.0}
{"compound": "C=CC(=O)N1CCN2c3ncnc4cc(-c5c(C)ccc6[nH]ncc56)c(Cl)c(c34)OCC[C@@H]2C1 (single isomer, unassigned) [Example 82]", "qualitative label": 0.0}

Would you say C=CC(=O)N1CCN2c3ncnc4c(Cl)c(-c5c(C)ccc6[nH]ncc56)cc(c34)OC[C@@H]2C1 [Example 8] shows KRasG12C M.S. Binding Mean adduct % at minimum 50%?
1.0

Would you say C=CC(=O)N1CCN2c3nc(N4CC(N(C)C)C4)nc4cc(-c5c(C)ccc6[nH]ncc56)c(Cl)c(c34)OC[C@@H]2C1 (single isomer, unassigned) [Example 77] shows KRasG12C M.S. Binding Mean adduct % at minimum 50%?
1.0

Would you say C=CC(=O)N1CCN2c3ncnc4cc(-c5cc(F)ccc5F)c(Cl)c(c34)OC[C@@H]2C1 [Example 40] shows KRasG12C M.S. Binding Mean adduct % at minimum 50%?
1.0

Would you say C=CC(=O)N1CCN2c3ncnc4cc(-c5c(O)cccc5Cl)c(Cl)c(c34)OC[C@@H]2C1 (single isomer, unassigned) [Example 15] shows KRasG12C M.S. Binding Mean adduct % at minimum 50%?
0.0

Would you say C=CC(=O)N1CCN2c3ncnc4cc(-c5cccc(F)c5F)c(Cl)c(c34)OC[C@@H]2C1 [Example 62] shows KRasG12C M.S. Binding Mean adduct % at minimum 50%?
1.0

Would you say C=CC(=O)N1CCN2c3ncnc4cc(-c5cccc6c5ncn6C)c(Cl)c(c34)OC[C@@H]2C1 [Example 45] shows KRasG12C M.S. Binding Mean adduct % at minimum 50%?
1.0

Would you say C=CC(=O)N1CCN2c3ncnc4cc(-c5c(C)ccc6[nH]ncc56)cc(c34)OC[C@@H]2C1 [Example 5] shows KRasG12C M.S. Binding Mean adduct % at minimum 50%?
1.0

Would you say C=CC(=O)N1CCN2c3ncnc4cc(-c5cccc6[nH]ncc56)c(Cl)c(c34)OC[C@@H]2C1 [Example 61] shows KRasG12C M.S. Binding Mean adduct % at minimum 50%?
1.0

Would you say C=CC(=O)N1CCN2c3ncnc4cc(-c5cn(C)c6ccccc56)c(Cl)c(c34)OC[C@@H]2C1 [Example 46] shows KRasG12C M.S. Binding Mean adduct % at minimum 50%?
1.0

Would you say Cc1ccc2[nH]ncc2c1-c1cc2ncnc3c2c(c1Cl)OC[C@@H]1CN(C(=O)/C=C/CN(C)C)CCN31 [Example 4] shows KRasG12C M.S. Binding Mean adduct % at minimum 50%?
1.0

* * *

Reported KRasG12C M.S. Binding Mean adduct % values are given for each entry in this list.
- target entity: GDP loaded biotinylated KRas^G12C protein (Homo sapiens, UniProt P01116, G12C)
- Construct: biotin (biotinylated); made in house
- protocol description: KRasG12C mass spectrometry adducting assay
- Format: binding
- test conditions: test compound final concentration 10 μM, 4 μM KRasG12C, react for 4 hours
The response must be a number in % with no trailing unit.

Worked cases, KRasG12C M.S. Binding Mean adduct % given:
{"compound": "C=CC(=O)N1CCN2c3ncnc4cc(-c5ccccc5S(C)(=O)=O)c(Cl)c(c34)OC[C@@H]2C1 [Example 29]", "KRasG12C M.S. Binding Mean adduct %, %": 45}
{"compound": "C=CC(=O)N1CCN2c3ncnc4cc(-c5ccccc5Cl)c(Cl)c(c34)OC[C@@H]2C1 [Example 42]", "KRasG12C M.S. Binding Mean adduct %, %": 100}
{"compound": "C=CC(=O)N1CCN2c3ncnc4cc(-c5cccc6c5CN(C)CC6)c(Cl)c(c34)OC[C@@H]2C1 [Example 34]", "KRasG12C M.S. Binding Mean adduct %, %": 8}
{"compound": "C=CC(=O)N1CCN2c3ncnc4cc(-c5cccc6[nH]ccc56)c(Cl)c(c34)OC[C@@H]2C1 [Example 53]", "KRasG12C M.S. Binding Mean adduct %, %": 74}
{"compound": "C=CC(=O)N1CCN2c3ncnc4cc(-c5c(C)ccc6[nH]ncc56)c(Cl)c(c34)OC[C@H]2C1 [Example 7]", "KRasG12C M.S. Binding Mean adduct %, %": 95}

Query (compound): C=CC(=O)N1CCN2c3nc(NC4CCN(C5CC5)CC4)nc4cc(-c5c(C)ccc6[nH]ncc56)c(Cl)c(c34)OC[C@@H]2C1 (single isomer, unassigned) [Example 73] ; field requested: KRasG12C M.S. Binding Mean adduct %
8

Query (compound): C=CC(=O)N1CCN2c3ncnc4cc(-c5cnccc5C)c(Cl)c(c34)OC[C@@H]2C1 [Example 55] ; field requested: KRasG12C M.S. Binding Mean adduct %
26
